# runDescription: Cytotoxic effect summarized over cells derived from various HCV strains (WST-1)
# Assay type: cell-based
# testParameters: human; seven full-length HCV-RNA-replicating cell lines; read-out: CC50 values, range over all cells
parameter: CC50

C1CCCCCC2(CCCCC1)OOCCCOO2 [N-89, 1,2,6,7-tetraoxaspiro[7,11]nonadecane] :: 500 to 9300 nM

Now consider the entry below.
So what's the measured CC50 for this one? OCCCCCCC1COOC2(CCCCCCCCCCC2)OOC1 [N-251]
490 to 3800 nM

* * *

# Test system: ORL8 cells
# runDescription: Cytotoxic effect, WST-1 cell proliferation assay in ORL8 cells
# testParameters: ORL8 cells, 72 hours, WST-1
parameter: CC50 (nM)
Note: unit nM is implicit; provide only the numeric part.

So what's the measured CC50 for this one? OCCCCCCC1COOC2(CCCCCCCCCCC2)OOC1 [N-251]
1300
